# test-name: chemical genetic growth profiling, strain panel (AID 1159580);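 further: tested at 20 µM; growth read once vehicle control cultures reached saturation at 30 °C; lower values mean less growth of the strain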
# applied-conditions: S. cerevisiae deletion strains, growth OD, locus YDR162C, strain NBP2
In all, about 5,500 compounds went through this assay and about 2,000 (36%) were called active. Roughly 18% stayed inconclusive and do not appear here. No stated cut-off is given here; in the data, active means normalized growth mostly below about 0.91 (no sharp cut-off); inconclusive means no clear call, values can overlap the other calls; inactive means mostly above about 0.92. This is one part of the list. Where a SMILES comes first, the peptide text is derived from it. Side-chain parts run from the residue outwards. [ ]: non-standard residue; d: D form. The star is where a group is joined. X1 = CCC(C)C(N)C1=NC(C(=O)*)CS1; Orn = NCCC[CH](N)C(=O)O
Log the outcome using a class from active, inactive

Prompt: Would you mind telling me which call this test gave CCC(C)C(N)C1=NC(C(=O)NC(CC(C)C)C(=O)NC(CCC(=O)O)C(=O)NC(C(=O)NCCCCC2NC(=O)C(CC(N)=O)NC(=O)C(CC(=O)O)NC(=O)C(Cc3cnc[nH]3)NC(=O)C(Cc3ccccc3)NC(=O)C(C(C)CC)NC(=O)C(CCCN)NC2=O)C(C)CC)CS1 (stereo not drawn) (cyclo(DNK([Ile-Glu-Leu-X1])[Orn]IFH); configuration not given here) ?
Response: inactive
